FYI, the data here is from patent US8653096B2.

# Experimental Target: RANTES/MIP-1α chemokine receptor (CCR1) in THP-1 cell membranes (Homo sapiens)
# Construct: Membranes were prepared from THP-1 cells (ATCC #TIB202); host or cells: THP-1 cells (membrane preparation)
# Sequence (P32246 1-355): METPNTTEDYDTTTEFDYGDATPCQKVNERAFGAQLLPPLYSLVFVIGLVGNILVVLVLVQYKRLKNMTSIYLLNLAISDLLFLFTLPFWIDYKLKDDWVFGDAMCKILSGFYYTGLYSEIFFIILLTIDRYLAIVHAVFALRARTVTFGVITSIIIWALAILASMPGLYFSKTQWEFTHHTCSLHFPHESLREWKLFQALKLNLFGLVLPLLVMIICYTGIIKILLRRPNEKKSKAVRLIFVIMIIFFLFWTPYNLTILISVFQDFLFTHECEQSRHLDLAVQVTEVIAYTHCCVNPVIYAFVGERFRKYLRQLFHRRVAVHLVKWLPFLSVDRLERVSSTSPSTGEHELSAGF
# Method: Receptor binding assay: 125I-RANTES or 125I-MIP-1α binding to THP-1 cell membranes
# Condition Description: inhibitor concentration required for 50% inhibition of specific binding; 125I-RANTES or 125I-MIP-1α as ligand, THP-1 cell membranes; read-out: IC50
Measured IC50 by item

Compound: COC(=O)C1CN(CCC=C2c3cc(C(C)(C)O)ccc3OCc3ncccc32)CCN1c1ccc(Cl)cc1 (stereo not shown)
IC50: < 1 µM
--
Compound: COC(=O)CCN(Cc1ccc(Cl)cc1)C1CCN(CCC=C2c3cc(C(C)(C)O)ccc3OCc3ncccc32)C1 (stereo not shown)
IC50: < 1 µM
--
Compound: CCN1C(=O)CN([C@@H]2CCN(CCC=C3c4cc(C(C)(C)O)ccc4OCc4ncccc43)C2)Cc2ccc(Cl)cc21
IC50: < 10 µM
--
Compound: O=C1Nc2ccccc2C(=CCCN2CCC(O)(c3ccc(Cl)cc3)CC2)c2ccccc21
IC50: < 10 µM
--
Compound: CC(C)(O)c1ccc2c(c1)C(=CCCN1CCC(CO)(c3ccc(Cl)cc3)CC1)c1cccnc1CO2
IC50: < 10 µM
--
Compound: CC(C)(O)c1ccc2c(c1)C(=CCCN1CC[C@](O)(c3ccc(Cl)cc3)[C@H](C#N)C1)c1cccnc1CO2 (relative stereo)
IC50: < 1 µM
--
Compound: CC(C)(O)c1ccc2c(c1)C(=CCCN1CC[C@@H](N(Cc3ccc(Cl)cc3)C(N)=O)C1)c1cccnc1CO2
IC50: < 10 µM

---

# Experimental Target: RANTES/MIP-1α chemokine receptor (CCR1) in THP-1 cell membranes (Homo sapiens)
# Construct: Membranes were prepared from THP-1 cells (ATCC #TIB202); host or cells: THP-1 cells (membrane preparation)
# Method: Receptor binding assay: 125I-RANTES or 125I-MIP-1α binding to THP-1 cell membranes
# Condition Description: inhibitor concentration required for 50% inhibition of specific binding; 125I-RANTES or 125I-MIP-1α as ligand, THP-1 cell membranes; read-out: IC50
Measured IC50 by item
Property Measured: IC50

Compound: CCN(c1ccc(Cl)cc1)[C@@H]1CCN(CCC=C2c3cc(C(C)(C)O)ccc3OCc3ncccc32)C1 [Example 525]
Value Reported: < 20 µM
--
Compound: CC(C)(O)c1ccc2c(c1)C(=CCCN1CC[C@@H](N3Cc4ccc(Cl)cc4C3)C1)c1cccnc1CO2 [Example 532]
Value Reported: < 2 µM
--
Compound: CCC(=O)NC1CN(CCC=C2c3cc(C(C)(C)O)ccc3OCc3ncccc32)CCC1(O)c1ccc(Cl)cc1 (stereo not shown) [Example 478]
Value Reported: < 10 µM
--
Compound: CCNC(=O)N(Cc1ccc(Cl)cc1)C1CCN(CCC=C2c3cc(C(C)(C)O)ccc3OCc3ncccc32)C1 (stereo not shown) [Example 569]
Value Reported: < 1 µM
--
Compound: O=[N+]([O-])c1ccc2c(c1)C(=CCCN1CCC(O)(c3ccc(Cl)cc3)CC1)c1ccccc1CO2 [Example 30]
Value Reported: < 1 µM
--
Compound: CCN(Cc1ccc(Cl)cc1)CC1CCN(CCC=C2c3cc(C(C)(C)O)ccc3OCc3ncccc32)C1 (stereo in doubt) [Example 526]
Value Reported: < 1 µM
--
Compound: CCNC(=O)CN(Cc1ccc(Cl)cc1)C1CCN(CCC=C2c3cc(C(C)(C)O)ccc3OCc3ncccc32)C1 (stereo not shown) [Example 553]
Value Reported: < 1 µM

---

# Experimental Target: RANTES/MIP-1α chemokine receptor (CCR1) in THP-1 cell membranes (Homo sapiens)
# Construct: Membranes were prepared from THP-1 cells (ATCC #TIB202); host or cells: THP-1 cells (membrane preparation)
# Method: Receptor binding assay: 125I-RANTES or 125I-MIP-1α binding to THP-1 cell membranes
# Condition Description: inhibitor concentration required for 50% inhibition of specific binding; 125I-RANTES or 125I-MIP-1α as ligand, THP-1 cell membranes; read-out: IC50
pIC50: −log10 of the molar value.
Property Measured: pIC50

Molecule: CC(C)(O)c1ccc2c(c1)C(=CCCN1CCC(C)(c3ccccc3Cl)CC1)c1cccnc1CO2 [Example 521]
Property Measured: pIC50
Value Reported: > 6.00

Molecule: CC(C)(Oc1ccc2c(c1)C(=CCCN1CCC(O)(c3ccc(Cl)cc3)CC1)c1cccnc1CO2)C(N)=O [Example 211]
Property Measured: pIC50
Value Reported: > 6.00

Molecule: CC(C)(CO)Oc1ccc2c(c1)C(=CCCN1CCC(O)(c3ccc(Cl)cc3)C(C)(C)C1)c1cccnc1CO2 (stereo not shown) [Example 511]
Property Measured: pIC50
Value Reported: > 6.00

Molecule: OC1(c2ccc(Cl)cc2)CCN(CCC=C2c3ccccc3COc3cc(Br)ccc32)CC1 [Example 35]
Property Measured: pIC50
Value Reported: > 6.00

---

# Experimental Target: RANTES/MIP-1α chemokine receptor (CCR1) in THP-1 cell membranes (Homo sapiens, UniProt P32246)
# Construct: Membranes were prepared from THP-1 cells (ATCC #TIB202); host or cells: THP-1 cells (membrane preparation)
# Method: Receptor binding assay: 125I-RANTES or 125I-MIP-1α binding to THP-1 cell membranes
# Condition Description: inhibitor concentration required for 50% inhibition of specific binding; 125I-RANTES or 125I-MIP-1α as ligand, THP-1 cell membranes; read-out: IC50
pIC50: −log10 of the molar value.
Measured pIC50 by item
Property Measured: pIC50

Compound: CC(C)(O)c1ccc2c(c1)C(=CCCN1CCC(O)(c3ccc(Cl)cc3)C(C)(CO)C1)c1cccnc1CO2 (single isomer, unassigned) [Example 483-1]
Value Reported: > 6.00
--
Compound: CCN(C(=O)Nc1ccc(Cl)cc1)C1CCN(CCC=C2c3cc(C(C)(C)O)ccc3OCc3ncccc32)C1 (stereo not shown)
Value Reported: > 5.00
--
Compound: O=C(O)COc1ccc2c(c1)C(=CCCN1CCC(c3ccc(Cl)cc3)CC1)c1cccnc1CO2
Value Reported: > 6.00
--
Compound: CCOC(=O)COc1ccc2c(c1)C(=CCCN1CCC(c3ccc(Cl)cc3)CC1)c1cccnc1CO2
Value Reported: > 6.00
--
Compound: CC(C)(O)c1ccc2c(c1)C(=CCCN1CCC(c3ccc(Cl)cc3)(C(C)(C)O)CC1)c1cccnc1CO2
Value Reported: > 5.00
--
Compound: OCc1ccc2c(c1)C(=CCCN1CCC(O)(c3ccc(Cl)cc3)CC1)c1ccccc1CO2
Value Reported: > 6.00
--
Compound: COc1ccc2c(c1)C(=CCCN1CCC(n3c(=O)n(C)c4ccccc43)CC1)c1cccnc1CO2
Value Reported: > 5.00

---

# Experimental Target: RANTES/MIP-1α chemokine receptor (CCR1) in THP-1 cell membranes (Homo sapiens, UniProt P32246)
# Construct: Membranes were prepared from THP-1 cells (ATCC #TIB202); host or cells: THP-1 cells (membrane preparation)
# Sequence (P32246 1-355): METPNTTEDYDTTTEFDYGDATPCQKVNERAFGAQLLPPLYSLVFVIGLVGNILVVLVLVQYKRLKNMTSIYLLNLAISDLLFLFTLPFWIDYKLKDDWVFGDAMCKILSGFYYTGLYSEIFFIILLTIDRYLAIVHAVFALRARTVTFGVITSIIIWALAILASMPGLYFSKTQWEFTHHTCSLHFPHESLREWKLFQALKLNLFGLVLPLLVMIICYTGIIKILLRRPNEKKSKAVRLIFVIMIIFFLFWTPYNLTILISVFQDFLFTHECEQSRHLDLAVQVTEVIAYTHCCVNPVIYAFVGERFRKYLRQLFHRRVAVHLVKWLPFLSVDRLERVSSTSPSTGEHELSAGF
# Method: Receptor binding assay: 125I-RANTES or 125I-MIP-1α binding to THP-1 cell membranes
# Condition Description: inhibitor concentration required for 50% inhibition of specific binding; 125I-RANTES or 125I-MIP-1α as ligand, THP-1 cell membranes; read-out: IC50

Compound: CC(C)N(Cc1ccc(Cl)cc1)C1CCN(CCC=C2c3cc(C(C)(C)O)ccc3OCc3ncccc32)C1 (stereo not shown)
IC50: < 1000 nM
//
Compound: COCCOc1ccc2c(c1)C(=CCCN1CCC(O)(c3ccc(Cl)cc3)CC1)c1cccnc1CO2
IC50: < 1000 nM
//
Compound: CC(C)(O)c1ccc2c(c1)C(=CCCN1CCC3(CC1)OC(=O)Nc1ccc(Cl)cc13)c1cccnc1CO2
IC50: < 1000 nM
//
Compound: CC(C)C(=O)N(Cc1ccc(Cl)cc1)C1CCN(CCC=C2c3cc(C(C)(C)O)ccc3OCc3ncccc32)C1 (stereo not shown)
IC50: < 10000 nM
//
Compound: C[C@H]1CN(CCC=C2c3cc(C(C)(C)O)ccc3OCc3ncccc32)CCN1c1ccc(Cl)cc1
IC50: < 1000 nM
//
Compound: CNC(=O)C(C)(C)Oc1ccc2c(c1)C(=CCCN1CCC(O)(c3ccc(Cl)cc3)CC1)c1cccnc1CO2
IC50: < 1000 nM
//
Compound: OC1(c2ccc(Cl)cc2)CCN(CCC=C2c3cc(OCc4nnn[nH]4)ccc3OCc3ncccc32)CC1
IC50: < 1000 nM
//
Compound: CC(C)(O)c1ccc2c(c1)C(=CCCN1CCC(C#N)(c3ccc(Cl)cc3)CC1)c1cccnc1CO2
IC50: < 1000 nM
//
Compound: CCN(Cc1ccc(Cl)cc1)[C@@H]1CCN(CCC=C2c3cc(C(=O)O)ccc3OCc3ncccc32)C1
IC50: < 1000 nM
//
Compound: CC(=O)c1ccc2c(c1)C(=CCCN1CC[C@@](O)(c3ccc(Cl)cc3)C(C)(C)C1)c1cccnc1CO2
IC50: < 1000 nM
//
Compound: CC(C)(O)c1ccc2c(c1)C(=CCCN1CCC(N(Cc3ccc(Cl)cc3)C(=O)C3CCCC3)C1)c1cccnc1CO2 (stereo not shown)
IC50: < 10000 nM
//
Compound: CC(C)(O)c1ccc2c(c1)C(=CCCN1CCN(c3ccc(Cl)cc3C#N)CC1)c1cccnc1CO2
IC50: < 10000 nM
//
Compound: CC1CN(CCC=C2c3cc(OCC(C)(C)O)ccc3OCc3ncccc32)CCC1(O)c1ccc(Cl)cc1 (stereo not shown)
IC50: < 1000 nM
//
Compound: CC(C)(O)c1ccc2c(c1)C(=CCCN1CCC(O)(c3ccc(Cl)cc3)CC1)c1cccnc1CO2
IC50: < 1000 nM
//
Compound: CC(C)(O)c1ccc2c(c1)C(=CCCN1CCN(c3ccc(Cl)c(Cl)c3)CC1)c1cccnc1CO2
IC50: < 10000 nM
//
Compound: Oc1ccc2c(c1)C(=CCCN1CCC(O)(c3ccc(Cl)cc3)CC1)c1ccccc1CO2
IC50: < 1000 nM
//
Compound: O=C1c2ccccc2C(=CCCN2CCC(O)(c3ccc(Cl)cc3)CC2)c2ccccc2N1Cc1ccccc1
IC50: < 1000 nM
//
Compound: CC(C)(O)c1ccc2c(c1)C(=CCCN1CCC(N(Cc3ccc(Cl)cc3)C(=O)NC3CCCCC3)C1)c1cccnc1CO2 (stereo not shown)
IC50: < 1000 nM
//
Compound: CCOC(=O)C(C)(C)Oc1ccc2c(c1)C(=CCCN1CCC(O)(c3ccc(Cl)cc3)C(C)(C)C1)c1cccnc1CO2 (stereo not shown)
IC50: < 1000 nM
//
Compound: N#Cc1ccc2c(c1)C(=CCCN1CCC(O)(c3ccc(Cl)cc3)CC1)c1ccccc1CO2
IC50: < 1000 nM
//
Compound: C=C(C)c1ccc2c(c1)C(=CCCN1CCC(c3ccc(Cl)cc3)(C(C)O)CC1)c1cccnc1CO2 (stereo not shown)
IC50: < 10000 nM
//
Compound: CC(C)(O)c1ccc2c(c1)C(=CCCN1CCC(OCc3ccc(Cl)cc3)C1)c1cccnc1CO2 (stereo not shown)
IC50: < 1000 nM
